# Test system: NOMO1
# assay-summary: cell viability relative to DMSO control; higher = less cytotoxic
# reported-conditions: RPMI 5 mM glucose + 10% FBS; 48 h; 15.4 µM
Item-by-item account of cell viability
The reply should be a number in %, with the unit left off.

What does the data say about its cell viability? Entry: "c1cc(N[C@@H]2CCNC2)nc(-c2cnc3ccc(-c4cn[nH]c4)cn23)c1"
111

Likewise for "COc1c(C)c2c(c(O)c1C/C=C(\C)CCC(=O)OCCN1CCOCC1)C(=O)OC2" ?
38.8

Likewise for "CN(C)c1ccccc1CN1CCCN(Cc2ccccc2N(C)C)C1c1ccncc1" ?
89.7

---

# System: NOMO1
# assay-summary: cell viability relative to DMSO control; higher = less cytotoxic
# reported-conditions: RPMI 5 mM glucose + 10% FBS; 48 h; 0.000781 µM
Item-by-item account of cell viability
The reply should be a number in %, with the unit left off.

// known answers, use as guide
N#C[C@@H]1C[C@@H]2C[C@@H]2N1C(=O)[C@@H](N)C12CC3CC(CC(O)(C3)C1)C2; 120
CCOC\1=C(/C(=O)NC2=CC=C(OC3=C(Cl)C(=NC=C3)N)C(=C2)F)C(=O)N(\C=C1)C4=CC=C(F)C=C4; 99.8
OCCN1CCN(CCCN2c3ccccc3Sc3ccc(C(F)(F)F)cc32)CC1; 104
CC(=O)O[C@@]12CO[C@@H]1C[C@H](O)[C@]3(C)[C@@H]2[C@H](OC(=O)C4=CC=CC=C4)[C@]5(O)C[C@H](O)/C(=C(/[C@@H](O)C3=O)C5(C)C)C; 98.1
Cc1ccc(Nc2nccc(N(C)c3ccc4c(C)n(C)nc4c3)n2)cc1[S+](N)(=O)[O-]; 93.9

What does the data say about its cell viability? Entry: "COc1ccc(-c2cc3c(C)nc(N)nc3n([C@H]3CC[C@H](OCCO)CC3)c2=O)cn1"
93.6

Likewise for Oc1ccc(C2CNCCc3c2cc(O)c(O)c3Cl)cc1 (stereo not drawn) ?
86

Likewise for "CNC(=O)c1cc(Oc2ccc(NC(=O)Nc3ccc(Cl)c(C(F)(F)F)c3)c(F)c2)ccn1" ?
86.5

---

Item-by-item account of cell viability
# Test system: SEM cells
# assay-summary: cell viability relative to DMSO control; higher = less cytotoxic
# reported-conditions: RPMI 5 mM glucose + 10% dialyzed FBS; 48 h; 0.19 µM
Give your result as the value with the unit written after it.

CC(=O)OCC(CCn1cnc2cnc(N)nc21)COC(C)=O; 95.5%

What does the data say about its cell viability? Entry: "O=C(/C=C/c1cccnc1)NCCCCC1CCN(C(=O)c2ccccc2)CC1"
6.77%

Likewise for "CN1\C(=C(O)/C2=C(C=C(Cl)S2)[S+]1([O-])=O)C(=O)NC3=NC=CC=C3" ?
134%

Likewise for "O=C1CCc2cc(OCCCCc3nnnn3C3CCCCC3)ccc2N1" ?
87.6%

Likewise for "COCCNCCCn1c(C(=O)CF)c(-c2ccc(C)cc2)c2c(N)ncnc21" ?
103%

Likewise for "CN1CCN(CC1)C/2=N/C3=CC=CC=C3NC4=C2C=C(C)S4" ?
118%

Likewise for "CCc1nc(C(N)=O)c(Nc2ccc(N3CCC(N4CCN(C)CC4)CC3)c(OC)c2)nc1NC1CCOCC1" ?
69.6%

Likewise for "O=C(Nc1ccncc1)C(=O)c1cn(Cc2ccc(Cl)cc2)c2ccccc12" ?
27.7%

---

# Tested on: NOMO1
# assay-summary: cell viability relative to DMSO control; higher = less cytotoxic
# reported-conditions: HPLM + 10% dialyzed FBS; 48 h; 0.569 µM
measured-endpoint: cell viability (%)
The reply should be a number in %, with the unit left off.

// known answers, use as guide
CCOC\1=C(/C(=O)NC2=CC=C(OC3=C(Cl)C(=NC=C3)N)C(=C2)F)C(=O)N(\C=C1)C4=CC=C(F)C=C4; 91.6
CN1CCN(c2cc(C(=O)Nc3ccc4c(c3)-c3c(c(C(N)=O)nn3-c3ccc(F)cc3)CC4)c(Cl)cn2)CC1; 113
O=C1CCc2cc(OCCCCc3nnnn3C3CCCCC3)ccc2N1; 107

What does the data say about its cell viability? Entry: "CC(C)(OCc1nn(Cc2ccccc2)c2ccccc12)C(=O)O"
108

Likewise for "C=C1C(=O)O[C@@H]2[C@H]3O[C@]3(C)CC/C=C(\C)CC[C@@H]12" ?
114

Likewise for "COC1=CC=CC(=C1/C2=N/CC3=C(N=C(NC4=CC(=C(C=C4)C(O)=O)OC)N=C3)C5=CC=C(Cl)C=C25)F" ?
53.4

Likewise for "CC(=O)[C@H]1CC[C@H]2[C@@H]3C/C=C4/C[C@@H](O)CC[C@]4(C)[C@H]3CC[C@]12C" ?
138

Likewise for "NC/1=N/C(=O)C2=C([NH]C=C2CCC3=CC=C(C=C3)C(=O)N[C@@H](CCC(O)=O)C(O)=O)N1" ?
78.2

---

# Tested on: P12-Ichikawa
# assay-summary: cell viability relative to DMSO control; higher = less cytotoxic
# reported-conditions: RPMI 5 mM glucose + 10% dialyzed FBS; 48 h; 0.000781 µM
measured-endpoint: cell viability (%)
The reply should be a number in %, with the unit left off.

// known answers, use as guide
COC(=O)[C@@H]1CC2=CC(=O)CC[C@]2(C)[C@@]23O[C@@H]2C[C@@]2(C)[C@@H](CC[C@@]24CCC(=O)O4)[C@H]13; 100
CCOC\1=C(/C(=O)NC2=CC=C(OC3=C(Cl)C(=NC=C3)N)C(=C2)F)C(=O)N(\C=C1)C4=CC=C(F)C=C4; 106

What does the data say about its cell viability? Entry: "CC[C@@H](C)[C@H](NC(=O)[C@H](CC1CCCCC1)NC(=O)c1ccno1)C(=O)N1CCC2(CCc3ccccc32)CC1"
84.3

Likewise for "CC[P](CC)(CC)=[Au][S][C@@H]1O[C@H](COC(C)=O)[C@@H](OC(C)=O)[C@H](OC(C)=O)[C@H]1OC(C)=O" ?
117

Likewise for O=C1C(CCC(O)c2ccc(F)cc2)C(c2ccc(O)cc2)N1c1ccc(F)cc1 (stereo not given) ?
101

Likewise for "COc1ccc(-c2cc3c(C)nc(N)nc3n([C@H]3CC[C@H](OCCO)CC3)c2=O)cn1" ?
96.6

Likewise for "CC(C)N(CCCNC(=O)Nc1ccc(C(C)(C)C)cc1)C[C@H]1O[C@@H](n2cc(Br)c3c(N)ncnc32)[C@H](O)[C@@H]1O" ?
83.5

---

# Tested on: SEM cells
# assay-summary: cell viability relative to DMSO control; higher = less cytotoxic
# reported-conditions: RPMI 5 mM glucose + 10% FBS; 48 h; 0.0211 µM
Item-by-item account of cell viability
The reply should be a number in %, with the unit left off.

N#C[C@@H]1C[C@@H]2C[C@@H]2N1C(=O)[C@@H](N)C12CC3CC(CC(O)(C3)C1)C2; 104
Cc1ccnc(N[S+](=O)([O-])c2ccc(NC(=O)Nc3ccc([S+](=O)([O-])Nc4nccc(C)n4)cc3)cc2)n1; 75.2

What does the data say about its cell viability? Entry: CCN(CCO)CCCC(C)Nc1ccnc2cc(Cl)ccc12 (stereo not drawn)
93

Likewise for "COC1=CC(=C2C(=O)N(COC/3=C/C(=O)N4\C=C/C=C(OCCN5CCCCC5)\C4=N3)[S+]([O-])(=O)C2=C1)C(C)C" ?
129

Likewise for "Cc1n[nH]c2ccc(-c3cncc(OC[C@@H](N)Cc4c[nH]c5ccccc45)c3)cc12" ?
102

---

Item-by-item account of cell viability
# System: SEM cells
# assay-summary: cell viability relative to DMSO control; higher = less cytotoxic
# reported-conditions: RPMI 5 mM glucose + 10% dialyzed FBS; 48 h; 0.0211 µM

// fetch SEM cells cell viability for "NNC(=O)c1ccncc1"
97.2%

Likewise for "COc1cc([C@@H]2c3cc4c(cc3[C@@H](O[C@@H]3O[C@@H]5CO[C@@H](C)O[C@H]5[C@H](O)[C@H]3O)[C@H]3COC(=O)[C@H]23)OCO4)cc(OC)c1O" ?
64.1%

Likewise for "CN1CCN(c2cc(C(=O)Nc3ccc4c(c3)-c3c(c(C(N)=O)nn3-c3ccc(F)cc3)CC4)c(Cl)cn2)CC1" ?
131%

Likewise for "CCOC\1=C(/C(=O)NC2=CC=C(OC3=C(Cl)C(=NC=C3)N)C(=C2)F)C(=O)N(\C=C1)C4=CC=C(F)C=C4" ?
90.1%

Likewise for CCCCCCCN(CC)CCCC(O)c1ccc(NS(C)(=O)=O)cc1.CCCCCCCN(CC)CCCC(O)c1ccc(NS(C)(=O)=O)cc1.O=C(O)/C=C/C(=O)O (stereo not drawn) ?
103%

---

# System: SEM cells
# assay-summary: AUC of viability dose-response curve (% viability x log10 dose units); higher = less sensitive
# reported-conditions: HPLM + 10% dialyzed FBS; 48 h
Item-by-item account of AUC of viability dose-response curve
The answer should be written as a number, with no unit following it.

// known answers, use as guide
COc1cc2nc(N3CCN(C(=O)c4ccco4)CC3)nc(N)c2cc1OC; 332
CNCCN(C)Cc1c[nH]nc1-c1ccc(O[C@H]2C[C@H](OCCC3CCOCC3)C2)cc1; 436
CCN(CC)Cc1ccc2cc(COC(=O)Nc3ccc(C(=O)NO)cc3)ccc2c1; 333

What does the data say about its AUC of viability dose-response curve? Entry: "CC1(C)NC(=O)N(c2ccc([N+](=O)[O-])c(C(F)(F)F)c2)C1=O"
404

Likewise for COc1ccc(CC2SC(=O)NC2=O)cc1C(=O)NCc1ccc(C(F)(F)F)cc1 (stereo not drawn) ?
381

Likewise for "NC(=O)[C@@H](CCC(F)(F)F)N(Cc1ccc(-c2ncon2)cc1F)[S+](=O)([O-])c1ccc(Cl)cc1" ?
430

Likewise for CCCCCCCN(CC)CCCC(O)c1ccc(NS(C)(=O)=O)cc1.CCCCCCCN(CC)CCCC(O)c1ccc(NS(C)(=O)=O)cc1.O=C(O)/C=C/C(=O)O (stereo not drawn) ?
446

Likewise for Clc1ccc(C(Cn2ccnc2)OCc2ccc(Sc3ccccc3)cc2)c(Cl)c1 (stereo not drawn) ?
416

Likewise for "COCCNCCCn1c(C(=O)CF)c(-c2ccc(C)cc2)c2c(N)ncnc21" ?
438

Likewise for "NC(=O)Cc1cccc(C(=O)c2ccccc2)c1N" ?
433

Likewise for CC(CCc1ccc(O)cc1)NCCc1ccc(O)c(O)c1 (stereo not drawn) ?
436

Likewise for Oc1ccc(C2CNCCc3c2cc(O)c(O)c3Cl)cc1 (stereo not drawn) ?
441

Likewise for "NC/1=N/C(=O)C2=C([NH]C=C2CCC3=CC=C(C=C3)C(=O)N[C@@H](CCC(O)=O)C(O)=O)N1" ?
355

Likewise for "CCCCc1oc2ccccc2c1C(=O)c1cc(I)c(OCCN(CC)CC)c(I)c1" ?
458

Likewise for "CCN(CC)CCNC(=O)c1ccc2nc(-c3ccccc3)c(-c3ccc(CN4CCC(n5c(=O)[nH]c6ccccc65)CC4)cc3)nc2c1" ?
246

All values here come from the supplement of paper PMC11451515.
